system: BaF3_EGFRWT cells; assay: Cell growth inhibition assay, BaF3_EGFRWT; assay type: cell-based; conditions: 72 h, 80 ng/mL recombinant human EGF, 3 days treatment, CellTiterGlo 2.0, read-out: EGFR WT IC50 (nM), cell growth inhibition
measuredProperty: IC50

1) C=CC(=O)N1CC(N(C)c2ccn3ncnc(Nc4ccc(Oc5ccn6ncnc6c5)c(C)c4)c23)C1
1500 to 5000 nM
2) COC1CCN(C/C=C/C(=O)N2CC(c3ccn4ncnc(Nc5ccc(Oc6ccn7ncnc7c6)c(C)c5)c34)C2)C1 (stereo not shown)
1500 to 5000 nM
3) COC/C=C/C(=O)N1CC(c2ccn3ncnc(Nc4ccc(Oc5ccn6ncnc6c5)c(C)c4)c23)C1
1500 to 5000 nM

input: GET /values?readout=IC50&item= C=CC(=O)N1CCC(c2ccn3ncnc(Nc4ccc(Oc5ccn6ncnc6c5)c(C)c4)c23)C1 (stereo not shown)
output: 1500 to 5000 nM

###

Some molecules, each annotated with its measured IC50.
test system: BaF3_EGFRWT cells; test: Cell growth inhibition assay, BaF3_EGFRWT; assay type: cell-based; settings: 80 ng/mL recombinant human EGF, 3 days treatment, CellTiterGlo 2.0, read-out: EGFR WT IC50 (nM), cell growth inhibition

Please review the entries below; each comes with its answer.
1. Cc1cc(Nc2ncnn3ccc(C4CCCN(C(=O)/C=C/CN(C)C)CC4)c23)ccc1Oc1ccn2ncnc2c1 (single isomer, unassigned) [Examples 109 and 110, second eluting isomer]
1500 to 5000 nM
2. Cc1cc(Nc2ncnn3ccc(C4CC5CCC(C4)N5C(=O)/C=C/CN(C)C)c23)ccc1Oc1ccn2ncnc2c1 (single isomer, unassigned) [Examples 122 and 123, second eluting isomer]
1500 to 5000 nM
3. Cc1cc(Nc2ncnn3ccc(C4CC5CCC4CN5C(=O)/C=C/CN(C)C)c23)ccc1Oc1ccn2ncnc2c1 (single isomer, unassigned; first eluting) [Examples 137 and 138, first eluting isomer]
1500 to 5000 nM
4. Cc1cc(Nc2ncnn3ccc(C4CCCN(C(=O)/C=C/CN(C)C)C4)c23)ccc1Oc1ccn2ncnc2c1 (single isomer, unassigned) [Examples 107 and 108, second eluting isomer]
1500 to 5000 nM
5. Cc1cc(Nc2ncnn3ccc(C4CCCN(C(=O)C(F)Cl)CC4)c23)ccc1Oc1ccn2ncnc2c1 (single isomer, unassigned) [Examples 145, 146, 147 and 148, third eluting isomer]
1500 to 5000 nM

input: GET /values?readout=IC50&item= C=C(CN(C)C)C(=O)N1CCCC(c2ccn3ncnc(Nc4ccc(Oc5ccn6ncnc6c5)c(C)c4)c23)CC1 (single isomer, unassigned) [Examples 143 and 144, second eluting isomer]
output: 1500 to 5000 nM

input: GET /values?readout=IC50&item= C=CC(=O)N1CC2CCC1CC2c1ccn2ncnc(Nc3ccc(Oc4ccn5ncnc5c4)c(C)c3)c12 (single isomer, unassigned) [Examples 139 and 140, second eluting isomer]
output: 1500 to 5000 nM

input: GET /values?readout=IC50&item= C=C(CN(C)C)C(=O)N1CC2CCC1CC2c1ccn2ncnc(Nc3ccc(Oc4ccn5ncnc5c4)c(C)c3)c12 (single isomer, unassigned) [Examples 135 and 136, first eluting isomer]
output: 1500 to 5000 nM

input: GET /values?readout=IC50&item= Cc1cc(Nc2ncnn3ccc(C4CCN(C(=O)/C=C/CN(C)C)C4)c23)ccc1Oc1ccn2ncnc2c1 (single isomer, unassigned) [Examples 99 and 100, second eluting isomer]
output: 1500 to 5000 nM

input: GET /values?readout=IC50&item= C=C(CN(C)C)C(=O)N1CC2CCC1CC2c1ccn2ncnc(Nc3ccc(Oc4ccn5ncnc5c4)c(C)c3)c12 (single isomer, unassigned) [Examples 135 and 136, second eluting isomer]
output: < 200 nM

input: GET /values?readout=IC50&item= Cc1cc(Nc2ncnn3ccc(C4CCCN(C(=O)C(F)Cl)CC4)c23)ccc1Oc1ccn2ncnc2c1 (single isomer, unassigned) [Examples 145, 146, 147 and 148, first eluting isomer]
output: 1500 to 5000 nM

input: GET /values?readout=IC50&item= C=CC(=O)N1CCCC(c2ccn3ncnc(Nc4ccc(Oc5ccn6ncnc6c5)c(C)c4)c23)CC1 (single isomer, unassigned) [Examples 111 and 112, second eluting isomer]
output: 1500 to 5000 nM

input: GET /values?readout=IC50&item= Cc1cc(Nc2ncnn3ccc(C4CC5CCC(C4)N5C(=O)/C=C/CN(C)C)c23)ccc1Oc1ccn2ncnc2c1 (single isomer, unassigned) [Examples 122 and 123, first eluting isomer]
output: 500 to 1500 nM

input: GET /values?readout=IC50&item= C=C(CN(C)C)C(=O)N1C2CCC1CC(c1ccn3ncnc(Nc4ccc(Oc5ccn6ncnc6c5)c(C)c4)c13)C2 (single isomer, unassigned) [Examples 126 and 127, second eluting isomer]
output: 1500 to 5000 nM

input: GET /values?readout=IC50&item= Cc1cc(Nc2ncnn3ccc(C4CCCN(C(=O)C(F)Cl)CC4)c23)ccc1Oc1ccn2ncnc2c1 (single isomer, unassigned) [Examples 145, 146, 147 and 148, second eluting isomer]
output: 500 to 1500 nM
